- Test method notes: Cryo-TEM of dendrimersomes from glycerol-JDs, number of vesicle layers
- Type: physicochemical
- Protocol conditions: vesicles with 1 layer
Metric name: Number of vesicle layers: 1 (count of vesicles)

>  <Molecule>
CCCCCCCCCCCCOc1cc(OCCCCCCCCCCCC)cc(C(=O)OCC(C)(COC(=O)c2cc(OCCCCCCCCCCCC)cc(OCCCCCCCCCCCC)c2)C(=O)OC[C@H](COC(=O)c2cc(OCCOCCOCCOC)c(OCCOCCOCCOC)c(OCCOCCOCCOC)c2)OC(=O)c2cc(OCCOCCOCCOC)c(OCCOCCOCCOC)c(OCCOCCOCCOC)c2)c1 [Compound 2S, (3,5)-12G1-BMPA-GC-(S)-(3,4,5)-3EO-G1]

>  <Reading>
63

$$$$

----------
- Test method notes: Dimensions (size, PDI) of DNPs co-assembled from IAJDs and Luc-mRNA by DLS
- Assay type: physicochemical
- Protocol conditions: Table 16; DNPs from IAJD 4 mg/mL and Luc-mRNA 0.10 mg/mL by injection in acetate buffer (10 mM, pH 4.0)

>  <Compound>
CCCCCCCCCCCCCCCCCOc1cc(CNC(=O)c2cc(OCCOCCOCCOC(=O)CCCN3CCCCC3)c(OCCCOCOCCOCc3ccccc3)c(OCCOCCOCCOC(=O)CCCN3CCCCC3)c2)cc(OCCCCCCCCCCCCCCCCC)c1 [IAJD 159]

>  <PDI>
0.218

$$$$
>  <Compound>
CCCCCCCCCCCOc1cc(COC(=O)CCCN2CCN(CCO)CC2)cc(OCCCCCCCC)c1 [IAJD 113]

>  <PDI>
0.511

$$$$
>  <Compound>
CCCCCCCCCCCCCCCOc1cc(COC(=O)CCCN2CCN(C)CC2)cc(OCCCCCCCCCCCCCC)c1 [IAJD 147]

>  <PDI>
0.287

$$$$
>  <Compound>
CCCCCCCCCCCCCCOc1cc(COC(=O)c2cc(OCCOCCOCCCC(=O)CCCN3CCCCC3)c(OCCOCCOCCOCc3ccccc3)c(OCCOCCOCCOC(=O)CCCN3CCCCC3)c2)cc(OCCCCCCCCCCC)c1 [IAJD 156]

>  <PDI>
0.236

$$$$
>  <Compound>
CCCCCCCCCCCCCCCCCCOc1cc(COC(=O)CCCN2CCN(CCO)CC2)cc(OCCCCCCCCCCC)c1 [IAJD 128]

>  <PDI>
0.381

$$$$
>  <Compound>
CCCCCCCCCCCCCCOc1cc(COC(=O)CCCN2CCN(C)CC2)cc(OCCCCCCCCCCCCC)c1 [IAJD 171]

>  <PDI>
0.268

$$$$

----------
- Test method notes: Stability of DNPs by DLS after storage at 5° C.
- Type: physicochemical
- Protocol conditions: after 75 days at 5° C.; IAJD 4.0 mg/mL + Luc-mRNA 0.1 mg/mL, acetate buffer
Entries and their measured PDI follow.
Metric name: PDI

>  <Molecule>
CCCCCCCCCCCOc1cc(COC(=O)c2cc(OCCOCCOCCCC(=O)CCCN3CCCCC3)c(OCCOCCOCCOCc3ccccc3)c(OCCOCCOCCOC(=O)CCCN3CCCCC3)c2)cc(OCCCCCCCCCCC)c1 [IAJD 111]

>  <Metric name>
PDI

>  <Reading>
0.227

$$$$
>  <Molecule>
CCCCCCCCCCCCCCCOc1cc(COC(=O)CCCN2CCN(C)CC2)cc(OCCCCCCCCCCC)c1 [IAJD 118]

>  <Metric name>
PDI

>  <Reading>
0.262

$$$$
>  <Molecule>
CCCCCCCCCCCOc1cc(COC(=O)CCCN2CCN(C)CC2)cc(OCCCCCCCCCC)c1 [IAJD 114]

>  <Metric name>
PDI

>  <Reading>
0.369

$$$$
>  <Molecule>
CCCCCCCCCCCCOc1cc(COC(=O)c2cc(OCCOCCOCCCC(=O)CCCN3CCCCC3)c(OCCOCCOCCOCc3ccccc3)c(OCCOCCOCCOC(=O)CCCN3CCCCC3)c2)cc(OCCCCCCCCCCCC)c1 [IAJD 110]

>  <Metric name>
PDI

>  <Reading>
0.222

$$$$

----------
- Test method notes: Stability of DNPs by DLS after storage at 5° C.
- Type: physicochemical
- Design: key: U: DLS curve showed unimodal size distribution; B: DLS curve showed bimodal size distribution; M: DLS curve showed multimodal size distribution
- Protocol conditions: after 19 days at 5° C.

>  <Molecule>
CCCCCCCCCCCCCCCOc1cc(COC(=O)CCCN2CCN(C)CC2)cc(OCCCCCCCCCCCCCC)c1

>  <Size distribution type (DLS curve)>
(U)

$$$$
>  <Molecule>
CCCCCCCCCCCCCCCCOc1cc(COC(=O)CCCN2CCN(CCO)CC2)cc(OCCCCCCCCCCCCCCC)c1

>  <Size distribution type (DLS curve)>
(U)

$$$$
>  <Molecule>
CCCCCCCCCCCCCCCOc1cc(COC(=O)c2cc(OCCOCCOCCCC(=O)CCCN3CCCCC3)c(OCCOCCOCCOCc3ccccc3)c(OCCOCCOCCOC(=O)CCCN3CCCCC3)c2)cc(OCCCCCCCCCCC)c1

>  <Size distribution type (DLS curve)>
(U)

$$$$
>  <Molecule>
CCCCCCCCCCCCCCCCOc1cc(COC(=O)CCCN2CCN(C)CC2)cc(OCCCCCCCCCCCCCCC)c1

>  <Size distribution type (DLS curve)>
(B)

$$$$
>  <Molecule>
CCCCCCCCCCCCCCCOc1cc(COC(=O)CCCN2CCN(CCO)CC2)cc(OCCCCCCCCCCCCCC)c1

>  <Size distribution type (DLS curve)>
(B)

$$$$
>  <Molecule>
CCCCCCCCCCCCCCCCCOc1cc(COC(=O)c2cc(OCCOCCOCCCC(=O)CCCN3CCCCC3)c(OCCOCCOCCOCc3ccccc3)c(OCCOCCOCCOC(=O)CCCN3CCCCC3)c2)cc(OCCCCCCCCCCC)c1

>  <Size distribution type (DLS curve)>
(U)

$$$$
>  <Molecule>
CCCCCCCCCCCOc1cc(COC(=O)c2cc(OCCOCCOCCCC(=O)CCCN3CCCCC3)c(OCCOCCOCCOCc3ccccc3)c(OCCOCCOCCOC(=O)CCCN3CCCCC3)c2)cc(OCC(CC)CCCC)c1 (centres unmarked)

>  <Size distribution type (DLS curve)>
(U)

$$$$
>  <Molecule>
CCCCCCCCCCCCCCOc1cc(COC(=O)c2cc(OCCOCCOCCCC(=O)CCCN3CCCCC3)c(OCCOCCOCCOCc3ccccc3)c(OCCOCCOCCOC(=O)CCCN3CCCCC3)c2)cc(OCCCCCCCCCCC)c1

>  <Size distribution type (DLS curve)>
(U)

$$$$

----------
Entries and their measured Dh (nm) follow.
- Test method notes: DLS size of dendrimersomes assembled from glycerol-JDs in water at different concentrations
- Assay type: physicochemical
- Protocol conditions: JD 0.5 mg·mL−1 in water; size distribution by intensity

>  <Compound>
CCCCCCCCCCCCOc1cc(OCCCCCCCCCCCC)cc(C(=O)OC[C@@H](COC(=O)C(C)(COC(=O)c2cc(OCCOCCOCCOC)c(OCCOCCOCCOC)c(OCCOCCOCCOC)c2)COC(=O)c2cc(OCCOCCOCCOC)c(OCCOCCOCCOC)c(OCCOCCOCCOC)c2)OC(=O)c2cc(OCCCCCCCCCCCC)cc(OCCCCCCCCCCCC)c2)c1 [Compound 1S, (3,5)-12G1-GC-(S)-BMPA-(3,4,5)-3EO-G1]

>  <Dh (nm)>
229

$$$$
>  <Compound>
CCCCCCCCCCCCOc1cc(OCCCCCCCCCCCC)cc(C(=O)OCC(COC(=O)c2cc(OCCCCCCCCCCCC)cc(OCCCCCCCCCCCC)c2)OC(=O)C(C)(COC(=O)c2cc(OCCOCCOCCOC)c(OCCOCCOCCOC)c(OCCOCCOCCOC)c2)COC(=O)c2cc(OCCOCCOCCOC)c(OCCOCCOCCOC)c(OCCOCCOCCOC)c2)c1

>  <Dh (nm)>
162

$$$$
>  <Compound>
CCCCCCCCCCCCOc1cc(OCCCCCCCCCCCC)cc(C(=O)OCC(C)(COC(=O)c2cc(OCCCCCCCCCCCC)cc(OCCCCCCCCCCCC)c2)C(=O)OC(COC(=O)c2cc(OCCOCCOCCOC)c(OCCOCCOCCOC)c(OCCOCCOCCOC)c2)COC(=O)c2cc(OCCOCCOCCOC)c(OCCOCCOCCOC)c(OCCOCCOCCOC)c2)c1

>  <Dh (nm)>
166

$$$$
>  <Compound>
CCCCCCCCCCCCOc1cc(OCCCCCCCCCCCC)cc(C(=O)OCC(COC(=O)C(C)(COC(=O)c2cc(OCCOCCOCCOC)c(OCCOCCOCCOC)c(OCCOCCOCCOC)c2)COC(=O)c2cc(OCCOCCOCCOC)c(OCCOCCOCCOC)c(OCCOCCOCCOC)c2)OC(=O)c2cc(OCCCCCCCCCCCC)cc(OCCCCCCCCCCCC)c2)c1 (racemic) [Compound 1rac, (3,5)-12G1-GC-(rac)-BMPA-(3,4,5)-3EO-G1]

>  <Dh (nm)>
281

$$$$
